Source: PubChem BioAssay (NCATS)

# test: Quantitative High-Throughput drug screen in 47 multiple myeloma cell lines against the NCATS MIPE library collection: JJN3_DSMZ cell viability assay (AID 1918966; note: nearly all actives have a fitted effect of over 50% in size)
# cond: JJN3 myeloma cells viability, CellTiter-Glo ATP, 48 h; series mostly up to 45.8 µM
Results filed as inconclusive are left out. Active and inactive are the calls of the source. Calls come from the whole dose curve; as a rule, active = well fitted cell-killing curve with a large enough effect; inconclusive = small, poorly fitted or top-dose-only effect, or effect the other way; inactive = no such curve, though single readings can be large or run the other way.
Classes used: yes (1) for active, no (0) for inactive

{"compound": "CN1CCc2c(c3ccccc3n2Cc2ccc(C(=O)NO)cc2)C1", "class_label": "yes (1)"}
{"compound": "Cc1cnn(C)c1C(=O)Nc1cc(Nc2ccc3c(C=Cc4ccccn4)n[nH]c3c2)ccc1F", "class_label": "yes (1)"}
{"compound": "C#CCC(Cc1cnc2nc(N)nc(N)c2n1)c1ccc(C(=O)N[C@@H](CCC(=O)O)C(=O)O)cc1 (some centres undefined)", "class_label": "yes (1)"}
{"compound": "C[C@]12C=CC(=O)N[C@@H]1CC[C@H]1[C@H]3CC[C@@H](C(=O)Nc4cc(C(F)(F)F)ccc4C(F)(F)F)[C@@]3(C)CC[C@@H]12", "class_label": "yes (1)"}
{"compound": "COc1ccc(S(=O)(=O)Nc2cccnc2Nc2ccc(O)cc2)cc1", "class_label": "yes (1)"}
{"compound": "C=Cc1c(C)c2cc3nc(cc4[nH]c(cc5nc(cc1[nH]2)C(C)=C5CCC(=O)O)c(CCC(=O)OC)c4C)[C@@]1(C)C3=CC=C(C(=O)OC)[C@H]1C(=O)OC", "class_label": "yes (1)"}
{"compound": "CCOC(=O)N1CCN([N+]([O-])=NOc2ccc([N+](=O)[O-])cc2C#N)CC1", "class_label": "yes (1)"}
{"compound": "CN(C)CC[C@H](c1ccc(Cl)cc1)c1ccccn1", "class_label": "no (0)"}
{"compound": "CC(=O)[C@]1(O)Cc2c(O)c3c(c(O)c2[C@@H](O[C@H]2C[C@H](N)[C@@H](O)[C@H](C)O2)C1)C(=O)c1ccccc1C3=O", "class_label": "yes (1)"}
